Data origin, for the record: ChEMBL document CHEMBL1146111

system: Coagulation factor VII/tissue factor (Homo sapiens) (UniProt P08709+P13726)
measurement-protocol: Anticoagulant potency in human plasma as measured by prothrombin time
Format: functional, cell-free
quantity-name: 2PT
Note: state the figure and append the unit.

Example results:
[
  {
    "molecule": "N=C(N)c1ccc2[nH]c(-c3cc(C(CC(=O)O)C(=O)O)cc(-c4cc(CCC(=O)O)ccc4O)c3O)nc2c1 (stereo not drawn)",
    "2PT": "5.4 µM"
  },
  {
    "molecule": "N=C(N)c1ccc2[nH]c(-c3cc(C(CC(=O)O)C(=O)O)cc(-c4cc(F)ccc4O)c3O)nc2c1 (stereo not drawn)",
    "2PT": "10.2 µM"
  },
  {
    "molecule": "N=C(N)c1ccc2[nH]c(-c3cc(C(CC(=O)O)C(=O)O)cc(-c4cc(C(=O)O)ccc4O)c3O)nc2c1 (stereo not drawn)",
    "2PT": "8.2 µM"
  },
  {
    "molecule": "N=C(N)c1ccc2[nH]c(-c3cc(C(CC(=O)O)C(=O)O)cc(-c4cc(NC(N)=O)ccc4O)c3O)nc2c1 (stereo not drawn)",
    "2PT": "4.9 µM"
  },
  {
    "molecule": "N=C(N)c1ccc2[nH]c(-c3cc(C(CC(=O)O)C(=O)O)cc(-c4cc(C(N)=O)ccc4O)c3O)nc2c1 (stereo not drawn)",
    "2PT": "3.6 µM"
  }
]

Requested field: 2PT. Item: N=C(N)c1ccc2[nH]c(-c3cc(C(CC(=O)O)C(=O)O)cc(-c4cc(CC(=O)O)ccc4O)c3O)nc2c1 (stereo not drawn)
6.2 µM

Repeat with N=C(N)c1ccc2[nH]c(-c3cc(C(CC(=O)O)C(=O)O)cc(-c4cc(CN)ccc4O)c3O)nc2c1 (stereo not drawn)
2.9 µM

Okay, and N=C(N)c1ccc2[nH]c(-c3cc(C(CC(=O)O)C(=O)O)cc(-c4cc(CC(N)=O)ccc4O)c3O)nc2c1 (stereo not drawn) ?
6.4 µM
